In this section, each of the compounds is paired with its reported viability, T/C.
Tested on: 327498-153-R-J2-PDC multicell spheroid viability;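 note: spheroids exposed to agents for 7 days; 100% = DMSO vehicle control viability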
protocol_description: Anticancer human tumor 327498-153-R-J2-PDC patient-derived uterine carcinosarcoma cell line growth inhibition [IpAb]
condition_notes: second compound 1 µM; first compound 0.1 µM; hits give low values
outcome_measure: viability, T/C

compound	tested_on	result
CC1(C)CCC(CN2CCN(c3ccc(C(=O)NS(=O)(=O)c4ccc(NCC5CCOCC5)c([N+](=O)[O-])c4)c(Oc4cnc5[nH]ccc5c4)c3)CC2)=C(c2ccc(Cl)cc2)C1 + CC(C)NCC(C(=O)N1CCN(c2ncnc3c2C(C)CC3O)CC1)c1ccc(Cl)cc1	327498-153-R-J2-PDC multicell spheroid viability	57.1%
C=CC(=O)N1CCN(c2nc(=O)n(-c3c(C)ccnc3C(C)C)c3nc(-c4c(O)cccc4F)c(F)cc23)C(C)C1 (centres undefined) + CC(C)NCC(C(=O)N1CCN(c2ncnc3c2C(C)CC3O)CC1)c1ccc(Cl)cc1	327498-153-R-J2-PDC multicell spheroid viability	25.6%
C=CC(=O)N1CCN(c2nc(=O)n(-c3c(C)ccnc3C(C)C)c3nc(-c4c(O)cccc4F)c(F)cc23)C(C)C1 (centres undefined) + CCN1CCN(Cc2ccc(Nc3ncc(F)c(-c4cc(F)c5nc(C)n(C(C)C)c5c4)n3)nc2)CC1	327498-153-R-J2-PDC multicell spheroid viability	36.5%
COc1c(OCCCN2CCOCC2)ccc2c3n(c(=NC(=O)c4cnc(N)nc4)nc12)CCN3 + CC(C)NCC(C(=O)N1CCN(c2ncnc3c2C(C)CC3O)CC1)c1ccc(Cl)cc1	327498-153-R-J2-PDC multicell spheroid viability	21.1%
